Listed here: items and their measured Ki σ2/Ki σ1.
Biological target: σ1R (Cavia porcellus)
Construct: from tissue; host or cells: guinea pig brain membrane homogenates
Sequence (Q60492 whole entry): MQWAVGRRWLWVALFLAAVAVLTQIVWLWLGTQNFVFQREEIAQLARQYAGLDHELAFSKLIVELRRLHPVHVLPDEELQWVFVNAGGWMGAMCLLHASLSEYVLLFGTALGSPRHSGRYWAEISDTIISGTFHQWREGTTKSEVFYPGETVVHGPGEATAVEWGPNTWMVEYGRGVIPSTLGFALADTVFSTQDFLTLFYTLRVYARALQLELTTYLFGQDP
Experiment: σ1R radioligand binding assay ([3H]-pentazocine, guinea pig brain membrane homogenates)
Conditions: σ1R selectivity ratio over σ2R
Provide a numeric answer; units are not to be included.

INSERT INTO measurements (item_smiles, obs_value) VALUES
  ('COc1ccc(CN2CCN(C(=O)CCCCc3ccccc3)CC2)cc1', 64),
  ('COc1ccc(CN2CCN(C(=O)Cc3ccccc3)CC2)cc1', 160),
  ('COc1ccc(CN2CCN(C(=O)CCC3CCCCC3)CC2)cc1', 886),
  ('COc1ccc(CN2CCN(C(=O)CCCOc3ccccc3)CC2)cc1', 43),
  ('O=C(CCCCc1ccccc1)N1CCN(Cc2ccc(CO)cc2)CC1', 423),
  ('COc1ccc(CN2CCN(C(=O)CCCc3ccccc3)CC2)cc1', 124),
  ('COc1ccc(CN2CCN(C(=O)CCc3ccccc3)CC2)cc1', 370);

In the following, a different compound is considered.
Retrieve Ki σ2/Ki σ1 measured for `COc1ccc(CN2CCN(C(=O)/C=C/c3ccccc3)CC2)cc1` and print it.
351
